Cited source: patent US8895526B2

Test system: tet-on competent MLL/AF9+Nras AML
Run Description: Pooled negative selection RNAi screening (deep sequencing)
Assay type: cell-based, mouse
Measurement Conditions: deep sequencing reads, On Dox compared to T0

Molecule	Measure Unit	Fold depletion in AML
Pdgfrb.1028: shRNA, SEQ ID NO: 163 (nucleic acid) TGCTGTTGACAGTGAGCGAAACGACCATGGCGATGAGAAATAGTGAAGCCACAGATGTATTTCTCATCGCCATGGTCGTTCTGCCTACTGCCTCGGA	Fold	16.16
Rbks.337: shRNA, SEQ ID NO: 172 (nucleic acid) TGCTGTTGACAGTGAGCGAAGCCTCCATAATTGTCAATAATAGTGAAGCCACAGATGTATTATTGACAATTATGGAGGCTGTGCCTACTGCCTCGGA	Fold	17.02
Nrg4.1358: shRNA, SEQ ID NO: 153 (nucleic acid) TGCTGTTGACAGTGAGCGCCAGACATGTTGAAGTGAATAATAGTGAAGCCACAGATGTATTATTCACTTCAACATGTCTGTTGCCTACTGCCTCGGA	Fold	8.11
EG408196.85: shRNA, SEQ ID NO: 116 (nucleic acid) TGCTGTTGACAGTGAGCGCAGCGAGAACCAGTGAGAAATATAGTGAAGCCACAGATGTATATTTCTCACTGGTTCTCGCTTTGCCTACTGCCTCGGA	Fold	20.79
